B1: scFv; the commonest letter at each place (parent)
chain 1: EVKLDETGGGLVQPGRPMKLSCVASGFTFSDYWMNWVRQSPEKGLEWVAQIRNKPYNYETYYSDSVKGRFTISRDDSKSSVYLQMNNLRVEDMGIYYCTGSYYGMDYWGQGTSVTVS
chain 2: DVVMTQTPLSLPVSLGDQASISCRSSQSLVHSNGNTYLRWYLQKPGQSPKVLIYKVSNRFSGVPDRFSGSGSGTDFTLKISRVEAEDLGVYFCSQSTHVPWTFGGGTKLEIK

Variants of: B1
Assay: yeast surface expression (ratio to wild type); higher = more expressed
Conditions: format: scFv 4-4-20, heavy + light
# yeast surface expression listing for each entry below
Keep the answer to the number alone.

**Query** Requested read-out: yeast surface expression. Entry: chain 1 S30F V37M
**Result** 0.669

**Query** Data request, read-out yeast surface expression, for chain 1 Y103W M105L G109W
**Result** 0.199

**Query** Param item = chain 1 S30R M34C ; retrieve measured yeast surface expression.
**Result** 0.668

**Query** Query (variant): chain 1 G100R Y103I ; field requested: yeast surface expression
**Result** 0.418

**Query** Look at this variant and give its reported yeast surface expression. chain 1 W33Q W36K
**Result** 0.466

**Query** Consider the variant chain 1 G104H G109H and give its measured yeast surface expression.
**Result** 0.765
